System: OVCAR-3 ovarian
measurement.description: NCI tumour cell line growth inhibition, 48 h
measurement.kind: log10(TGI) (log10 of the value in µM)

>>> quantitative_result("O=C(NC1CCCCCC1)C1C(=O)N(C2CCCCCC2)C(=O)/C1=N\\O (configuration not stated)")
1.58
>>> quantitative_result("C[C@]12CC[C@@H]3c4ccc(Oc5nc(N6CC6)nc(N6CC6)n5)cc4CC[C@H]3[C@@H]1CCC2=O")
1.18
>>> quantitative_result("NC(N)=NC(N)=Nc1cc2ccccc2c2ccccc12")
1.42
>>> quantitative_result("COc1ccc(C(=O)/C=C/c2cccnc2Nc2cc(OC)c(OC)c(OC)c2)cc1")
0.67
>>> quantitative_result("COc1cc2c3c(n(CCCCl)c(=O)c2cc1OC)-c1ccccc1C3=O")
1.74
>>> quantitative_result("NC(N)=N/N=C/c1c(Cl)nc2sccn12")
1.96
>>> quantitative_result("COc1cccc(C2c3cc4c(cc3OC(N3CCCC3)C2C)OCO4)c1 (configuration not stated)")
1.46
>>> quantitative_result("COc1ccc(/C(=N/Nc2ccc([N+](=O)[O-])cc2)Sc2cc(Cl)c(C)cc2S(N)(=O)=O)cc1")
0.87
>>> quantitative_result("COc1cc2c(c(OC)c1OC)-c1ccc(SC)c(=O)cc1C(CC(=O)Oc1ccc([N+](=O)[O-])cc1)C2 (configuration not stated)")
-0.04
>>> quantitative_result("O=C(/C=C/c1ccccc1Cl)c1ccccc1Cl")
1.53
